System: E. cloacae 34654
Test: MIC determination, broth microdilution (CLSI)
Format: cell-based
Details: Enterobacter cloacae, 34654, strain 3
# reported MIC; entries follow
Lab book: enter the figure in µg/mL, no units written.

C[C@H]1[C@H](NC(=O)/C(=N\OCc2ccc(C(=N)N)cc2)c2csc(N)n2)C(=O)N1S(=O)(=O)O [Example 55] | 0.5
CC1(C)[C@H](NC(=O)/C(=N\O[C@@H](COc2ccc(C(=N)NC3CNCC3N)cc2)C(=O)O)c2csc(N)n2)C(=O)N1OS(=O)(=O)O (stereo partly drawn) [Example 106] | 0.125
C[C@H]1[C@H](NC(=O)/C(=N\OCCOc2ccc(CC(=N)N)cc2)c2csc(N)n2)C(=O)N1S(=O)(=O)O [Example 62] | 1
CC1(C)[C@H](NC(=O)/C(=N\OCCOc2ccc(C(=N)NCCNC(=N)N)cc2)c2csc(N)n2)C(=O)N1OS(=O)(=O)O [Example 78] | 0.5
CC1(C)[C@H](NC(=O)/C(=N\OC(COc2ccc(C(=N)N)cc2)C(N)=O)c2csc(N)n2)C(=O)N1OS(=O)(=O)O (stereo partly drawn) [Example 75] | 0.5

Now let's try a different one.
Which measured MIC value corresponds to N=C(N)c1ccc(OCCO/N=C(\C(=O)NC2C(=O)N(OS(=O)(=O)O)C23CCCC3)c2csc(N)n2)cc1 (stereo not drawn) [Example 16] ?
1

###

Test system: M. morganii 126/3048
Assay: MIC determination, broth microdilution (CLSI)
Format: cell-based
Conditions: strain 5
# strain 5 MIC >= 2 µg/mL gives 1, anything below gives 0

Hi, just wondering whether CC1(C)[C@H](NC(=O)/C(=N\OC(CCO)COc2ccc(C(=N)N)cc2)c2csc(N)n2)C(=O)N1OS(=O)(=O)O (single isomer, unassigned) [Example 81B] shows strain 5 MIC of 2 µg/mL or higher.
1

Continue with CC1(C)[C@H](NC(=O)/C(=N\OC(COc2ccc(C(=N)N)cc2)C(=O)O)c2csc(N)n2)C(=O)N1OS(=O)(=O)O (mixture of isomers) [Example 27A]
0

Continue with CC1(C)[C@H](NC(=O)/C(=N\OC(CO)COc2ccc(C(=N)N)cc2)c2csc(N)n2)C(=O)N1OS(=O)(=O)O (mixture of isomers) [Example 45B]
1

Continue with CC1(C)[C@H](NC(=O)/C(=N\OC(COc2ccc(C(=N)NCCN)cc2)C(=O)O)c2csc(N)n2)C(=O)N1OS(=O)(=O)O (mixture of isomers) [Example 44A]
0

Continue with CC1(C)[C@H](NC(=O)/C(=N\OC(COc2ccc(C(=N)N)cc2)C(=O)O)c2csc(N)n2)C(=O)N1OS(=O)(=O)O (mixture of isomers) [Example 27B]
0

###

Test system: Bacteria
Test: MIC determination in combination with β-lactamase inhibitors (constant 4 μg/mL)
Assay type: cell-based
Settings: strain 19; E. coli J62-TEM-3 + 4 μg/mL clavulanic acid
# reported MIC strain 19 (E. coli J62-TEM-3 + 4 μg/mL clavulanic acid); entries follow
Lab book: enter the figure in µg/mL, no units written.

Below, 3 compounds whose answers are already recorded.
C[C@H]1[C@H](NC(=O)/C(=N\OCCOc2ccc(C(=N)N)cc2CO)c2csc(N)n2)C(=O)N1S(=O)(=O)O [Example 59] | 2
CNCCNC(=N)c1ccc(OC[C@H](O/N=C(\C(=O)N[C@@H]2C(=O)N(OS(=O)(=O)O)C2(C)C)c2csc(N)n2)C(=O)O)cc1 [Example 95] | 0.125
CC1(C)[C@H](NC(=O)/C(=N\OCCOc2ccc(C(=N)N3CCNCC3)cc2)c2csc(N)n2)C(=O)N1OS(=O)(=O)O [Example 80] | 0.5

Which measured MIC strain 19 (E. coli J62-TEM-3 + 4 μg/mL clavulanic acid) value corresponds to CC(=N)N1CC[C@H](NC(=N)c2ccc(OCCO/N=C(\C(=O)N[C@@H]3C(=O)N(OS(=O)(=O)O)C3(C)C)c3csc(N)n3)cc2)C1 [Example 43] ?
0.25

Continue with CC1(C)[C@H](NC(=O)/C(=N\OCC(Oc2ccc(C(=N)N)cc2)C(=O)O)c2csc(N)n2)C(=O)N1OS(=O)(=O)O (single isomer, unassigned) [Example 87A]
1

Continue with CC1(C)[C@H](NC(=O)/C(=N\O[C@@H](COc2ccc(C(=N)NC3CC3N)cc2)C(=O)O)c2csc(N)n2)C(=O)N1OS(=O)(=O)O (single isomer, unassigned) [Example 100A]
0.125
